- ASSAYED SYSTEM: T1, recombinant human IGFBP-3 (human, UniProt P17936 28-291)
- T1 construct: mature
- T1 sequence (P17936 28-291): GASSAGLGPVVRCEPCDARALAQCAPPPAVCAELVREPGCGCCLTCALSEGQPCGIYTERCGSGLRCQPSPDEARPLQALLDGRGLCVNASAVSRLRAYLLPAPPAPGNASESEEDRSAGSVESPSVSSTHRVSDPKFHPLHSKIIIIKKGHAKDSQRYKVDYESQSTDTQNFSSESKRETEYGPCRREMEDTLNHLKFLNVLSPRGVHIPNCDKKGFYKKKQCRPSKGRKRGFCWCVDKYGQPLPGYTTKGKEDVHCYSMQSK
- EXPERIMENT DESCRIPTION: competitive phage ELISA
pIC50: −log10 of the molar value.
MEASUREMENT TYPE: pIC50

IGF-I G7A (phage-displayed) (ligand, G1S-A70V template; monovalent M13 display; not shown: M13 gene III fragment (residues 249-406), the display carrier, and its junction to IGF-I) SPETLCAAELVDALQFVCGDRGFYFNKPTGYGSSSRRAPQTGIVDECCFRSCDLRRLEMYCAPLKPAKSV ... 8.34
Ala(1-3)-IGF-I (phage-displayed triple alanine mutant) (ligand) AAATLCGAELVDALQFVCGDRGFYFNKPTGYGSSSRRAPQTGIVDECCFRSCDLRRLEMYCAPLKPAKSV ... 8.95
